target: human CD1a expressed on cells (human, UniProt P06126 17-327); experiment: cell-based or functional assay
Sequence (P06126 17-327): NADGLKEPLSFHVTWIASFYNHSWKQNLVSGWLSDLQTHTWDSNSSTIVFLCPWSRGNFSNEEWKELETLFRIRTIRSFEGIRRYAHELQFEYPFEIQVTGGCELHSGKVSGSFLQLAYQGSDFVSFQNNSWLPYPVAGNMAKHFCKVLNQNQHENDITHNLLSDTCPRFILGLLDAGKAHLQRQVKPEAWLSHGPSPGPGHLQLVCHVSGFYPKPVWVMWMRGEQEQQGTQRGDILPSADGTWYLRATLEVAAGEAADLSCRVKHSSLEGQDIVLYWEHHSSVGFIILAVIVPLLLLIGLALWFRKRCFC
The binders listed here are annotated with their Inhibition of CD69 expression, IC50.
Give the number; nM is assumed, so skip it.

Answered examples (3):
* Ab579 (antibody, human IgG1, kappa, V domains shown, Optimized variant of Ab138; human IgG1 effector null / kappa; HC with or without terminal lysine) VH: EVQLVESGGGLVQPGGSLRLSCAASGFTFTDHYMTWVRQAPGKGLEWVAFIRNSAGGYTTESNPAVKGRFTISRDNAKNSLYLQMNSLRAEDTAVYYCARETTRIPTGWFAYWGQGTLVTVSS VL: DIQMTQSPSSLSASVGDRVTITCLASEDIYFDLAWYQQKPGKAPKLLIYGGDRLKEGVPSRFSGSGSGTDYTLTISSLQPEDFATYYCQQSYSYPYTFGQGTKLEIKR | 0.73
* Ab585 (antibody, human IgG1, kappa, V domains shown, Optimized variant of Ab138; human IgG1 effector null / kappa; HC with or without terminal lysine) VH: EVQLVESGGGLVQPGGSLRLSCAASGFTFTDHYMHWVRQAPGKGLEWVGHISGSAGGYTTESNPAVKGRFTISRDNAKNSLYLQMNSLRAEDTAVYYCARETTRIPTGWFAYWGQGTLVTVSS VL: DIQMTQSPSSLSASVGDRVTITCLASEDIYFDLAWYQQKPGKAPKLLIYGASTPKDGVPSRFSGSGSGTDYTLTISSLQPEDFATYYCQQSEKYPYTFGQGTKLEIKR | 0.38
* Ab657 (antibody, human IgG1, kappa, V domains shown, Optimized variant of Ab138; human IgG1 effector null / kappa; HC with or without terminal lysine) VH: EVQLVESGGGLVQPGGSLRLSCAASGFTFTDHYMHWVRQAPGKGLEWVAHTRDKAGGYTTESNPAVKGRFTISRDNAKNSLYLQMNSLRAEDTAVYYCARETTRIPTGWFAYWGQGTLVTVSS VL: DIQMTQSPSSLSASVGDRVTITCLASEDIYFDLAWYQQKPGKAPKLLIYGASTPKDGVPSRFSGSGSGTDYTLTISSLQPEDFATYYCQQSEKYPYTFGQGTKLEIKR | 0.51

Please find the next binder below.
Asked: Requested read-out: Inhibition of CD69 expression, IC50. Entry: Ab624 (antibody, human IgG1, kappa, V domains shown, Optimized variant of Ab138; human IgG1 effector null / kappa; HC with or without terminal lysine) VH: EVQLVESGGGLVQPGGSLRLSCAASGFDFTDHYMHWVRQAPGKGLEWVAHTRDKAGGYTTESNPAVKGRFTISRDNAKNSLYLQMNSLRAEDTAVYYCARETTRIPTGWFAYWGQGTLVTVSS VL: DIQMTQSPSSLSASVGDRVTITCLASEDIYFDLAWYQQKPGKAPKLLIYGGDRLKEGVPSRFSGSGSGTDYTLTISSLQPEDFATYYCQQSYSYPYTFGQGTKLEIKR
Given back: 0.35
